Listed binders paired with reported Kd
testedOn: T1, CHO expressed human interferon gamma (hIFNγ) (human, UniProt P01579 24-161, glycosylated (highly glycosylated form purified))
T1 chain: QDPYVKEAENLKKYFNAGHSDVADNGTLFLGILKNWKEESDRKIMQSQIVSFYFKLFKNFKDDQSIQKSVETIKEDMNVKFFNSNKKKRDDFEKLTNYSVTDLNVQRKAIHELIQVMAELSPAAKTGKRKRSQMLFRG
measurementProtocol: BIAcore
Kindly answer with a numeric value in nM, unit omitted.

Worked examples follow.
>>> value("BS-A Fab (soluble, purified) (Fab, V domains shown) VH: QVQLQQWGAGLLKPSETLSLTCAVYGGSFSGYYWSWIRQPPGKGLEWIGEINHSGSTNYNPSLKSRVTISVDTSKNQFSLKLSSVTAADTAVYYCARGRARNWRSRFDYWGQGTLVTVSS VL: NFMLTQPHSVSESPGKTVTISCTGSSGSIASHYVQWYQQRPGSAPTNVIYEDKERPSGVPDRFSGSIDSSTNSASLTISGLKTEDEADYYCQSYDSSNQWVFGGGTKLTVLG")
84.3
>>> value("BS-A IgG (antibody, V domains shown) VH: QVQLQQWGAGLLKPSETLSLTCAVYGGSFSGYYWSWIRQPPGKGLEWIGEINHSGSTNYNPSLKSRVTISVDTSKNQFSLKLSSVTAADTAVYYCARGRARNWRSRFDYWGQGTLVTVSS VL: NFMLTQPHSVSESPGKTVTISCTGSSGSIASHYVQWYQQRPGSAPTNVIYEDKERPSGVPDRFSGSIDSSTNSASLTISGLKTEDEADYYCQSYDSSNQWVFGGGTKLTVLG")
6

Enquiry: Given Fab phage clone "GP-A" (Fab, V domains shown) VH: QVQLVETGGGVVQPGRSLRLSCAASGFTFSSYAMHWVRQAPGKGLEWVAVISYDGSNKYYADSVKGRFTISRDNSKNTLYLQMNSLRAEDTAVYYCASDLVLTMTSRRAAFDIWGQGTMVTVSS VL: SYELTQPPSVSVSPGQTARITCSGDVLARKYARWFQQKPGQAPVLVIYKDRERPSGIPERFSGSTSGTTVTLTISGAQVEDEADYYCYSAADNRGVFGGGTKLTVLR , state its recorded Kd.
Return: 150
